# testedOn: BRD4 BD1 (Homo sapiens)
# Construct: HEK293 cells were transfected using NanoLuc-BRD4-BD1 or NanoLuc-BRD4-BD2 fusion vectors
# assayProcedure: NanoBRET bromodomain assay, NanoLuc-BRD4-BD1 in HEK293 cells
pIC50: −log10 of the molar value.
Kindly state pIC50 for each of the entries shown.

Per the reported BRD4 BD1 (Homo sapiens) data, Cc1nn(C2COC2)cc1-c1cc2c(-c3cc(=O)n(C)cc3-c3ccccc3)cn(C)c(=O)c2[nH]1 has pIC50 of < 6.00

Form field pIC50 for item CCn1cc(-c2cc(=O)n(C)cc2-c2ccccc2)c2cc(-c3cnn(C(F)(F)F)c3)[nH]c2c1=O on BRD4 BD1 (Homo sapiens): < 6.00

Batch: pIC50 for all items listed.
1. Cn1cc(-c2ccccc2)c(-c2cn(C)c(=O)c3[nH]c(-c4ccc(F)c(C(C)(C)O)c4)cc23)cc1=O
2. COCCOc1ccc(-c2cn(C)c(=O)cc2-c2cn(C)c(=O)c3[nH]c(-c4cnn(C(F)(F)F)c4)cc23)cc1

OUTPUT:
1: 6.00 to 6.30; 2: < 6.00
